- protocol.summary: qHTS assay to identify small molecule agonists of the hypoxia (HIF-1) signaling pathway - cell viability counter screen (AID 1224844); also: nearly all actives have a fitted effect of over 50% in size
- experimental.setup: HRE-bla ME-180 viability, CellTiter-Glo luminescence, 17 h; series mostly up to 76.8 µM
Results filed as inconclusive are left out. Activity calls are given as the source filed them. Calls follow the shape of the full dose curve.
Returns: one label drawn from active, inactive

Solved entries (count: 10):
>  <compound>
ClC1=C(Cl)[C@]2(Cl)[C@@H]3[C@@H](Cl)[C@H](Cl)C[C@@H]3[C@@]1(Cl)C2(Cl)Cl

>  <class>
inactive

$$$$
>  <compound>
Oc1ccc(I)cc1

>  <class>
inactive

$$$$
>  <compound>
CCC(C)c1cc(C(C)(C)C)cc(-n2nc3ccccc3n2)c1O (configuration not stated)

>  <class>
active

$$$$
>  <compound>
CCOP(=O)(NC(C)C)Oc1ccc(SC)c(C)c1 (configuration not stated)

>  <class>
inactive

$$$$
>  <compound>
CC(=O)/C=C/c1ccc2c(c1)OCO2

>  <class>
inactive

$$$$
>  <compound>
COP(=O)(CCC(=O)NCO)OC

>  <class>
inactive

$$$$
>  <compound>
O=[N+]([O-])c1cc(Cl)ccc1Cl

>  <class>
inactive

$$$$
>  <compound>
COC12CC[C@@]3(C[C@@H]1C(C)(O)C(C)(C)C)[C@H]1Cc4ccc(O)c5c4[C@@]3(CCN1CC1CC1)[C@H]2O5 (some centres not stated)

>  <class>
active

$$$$
>  <compound>
CCCCCCCCCCCCCN1CC(C)OC(C)C1 (configuration not stated)

>  <class>
inactive

$$$$
>  <compound>
Cl/C=C\CCl

>  <class>
inactive

$$$$

Inquiry: Recorded test outcome, item NC(=O)CCl
Reply text: inactive

Inquiry: Recorded test outcome, item O=C(Nc1ccc2[nH]ccc2c1)c1cc2cc(F)ccc2n1Cc1cccc(F)c1
Reply text: active

----------
- protocol.summary: Caspase-3/7 induction in HepG2 cells by small molecules, qHTS assay (AID 1346978); also: nearly all actives have a fitted effect of over 15% in size; also: potency is read from the fitted curve at half-maximal effect
- experimental.setup: HepG2 caspase-3/7 activation, Caspase-Glo luminescence, 17 h; series mostly up to 92.4 µM
Inconclusive results are not listed. Active and inactive are the calls of the source. Calls follow the shape of the dose curve; as a rule, active = well fitted activation curve with a large enough effect in the repeat runs; inconclusive = weak or mixed curves; inactive = flat fitted curve, though single readings scatter.
measurement.name: Potency

Observe how each entry below is paired with its result.
>  <compound>
CNC(C)Cc1ccc2c(c1)OCO2 (stereo not drawn)

>  <result>
inactive

$$$$
>  <compound>
O=C(CBr)c1ccc(O)cc1

>  <result>
inactive

$$$$
>  <compound>
O=C(Cl)c1ccc(Cl)cc1

>  <result>
inactive

$$$$
>  <compound>
N#C/C=C/c1ccccc1

>  <result>
inactive

$$$$
>  <compound>
O=[N+]([O-])c1c2ccccc2cc2ccccc12

>  <result>
inactive

$$$$

Inquiry: Given the compound CCN(CC)C(=S)[S-].CCN(CC)C(=S)[S-].[Zn+2] , what is its reported Potency?
Reply text: 1.08 µM (active)

Inquiry: Given the compound COC12CC[C@@]3(C[C@@H]1C(C)(O)C(C)(C)C)[C@H]1Cc4ccc(O)c5c4[C@@]3(CCN1CC1CC1)[C@H]2O5 (stereo partly drawn) , what is its reported Potency?
Reply text: 60.7 µM (active)

Inquiry: Given the compound C[C@@H]1CC[C@@]2(OC1)O[C@H]1[C@@H](O)[C@H]3[C@@H]4CC[C@H]5C[C@@H](O[C@@H]6O[C@H](CO)[C@H](O[C@@H]7O[C@H](CO)[C@@H](O)[C@H](O[C@@H]8OC[C@@H](O)[C@H](O)[C@H]8O)[C@H]7O[C@@H]7O[C@H](CO)[C@@H](O)[C@H](O[C@@H]8O[C@H](CO)[C@@H](O)[C@H](O)[C@H]8O)[C@H]7O)[C@H](O)[C@H]6O)[C@H](O)C[C@]5(C)[C@H]4CC[C@]3(C)[C@H]1[C@@H]2C , what is its reported Potency?
Reply text: inactive

----------
- protocol.summary: qHTS assay for small molecules that induce genotoxicity in human embryonic kidney cells expressing luciferase-tagged ATAD5 - cell viability (AID 651634); also: nearly all actives have a fitted effect of over 25% in size
- experimental.setup: HEK293T ATAD5-luc cells viability, CellTiter-Fluor, 15.5 h; series mostly up to 83.3 µM
Records with an inconclusive call do not appear. The source made the active and inactive calls. The call rests on the fitted dose curve.
Returns: one label drawn from yes for active, no for inactive

>  <molecule>
CC1(C)C(/C=C(\Cl)C(F)(F)F)C1C(=O)OC(C#N)c1cccc(Oc2ccccc2)c1 (stereo not given)

>  <class>
no

$$$$
>  <molecule>
O=C(O)COc1nc(Cl)c(Cl)cc1Cl

>  <class>
no

$$$$
>  <molecule>
CNC(C)Cc1ccc2c(c1)OCO2 (stereo not given)

>  <class>
no

$$$$
>  <molecule>
Clc1ccc(COC(Cn2ccnc2)c2ccc(Cl)cc2Cl)cc1 (stereo not given)

>  <class>
yes

$$$$
>  <molecule>
Nc1ccccc1C(=O)Oc1ccc2ccccc2c1

>  <class>
no

$$$$

Inquiry: Recorded test outcome, item CS(=O)(=O)c1ccc(C(=O)C2C(=O)CCCC2=O)c([N+](=O)[O-])c1
Reply text: no

Inquiry: Recorded test outcome, item O=C(NC(=O)c1c(F)cccc1F)Nc1cc(Cl)c(OC(F)(F)C(F)F)c(Cl)c1
Reply text: no

----------
- protocol.summary: qHTS assay for small molecules that induce genotoxicity in human embryonic kidney cells expressing luciferase-tagged ATAD5 (AID 651632); also: nearly all actives have a fitted effect of over 15% in size
- experimental.setup: HEK293T ATAD5-luciferase induction, 16 h; series mostly up to 83.3 µM
Records with an inconclusive call do not appear. Active and inactive are the calls of the source. Calls follow the shape of the dose curve; as a rule, active = well fitted activation curve with a large enough effect in the repeat runs; inconclusive = weak or mixed curves; inactive = no such curve, though single readings can be large or run the other way.
Returns: one label drawn from 1.0 for active, 0.0 for inactive

Solved entries (count: 3):
>  <compound>
CNC(C)Cc1ccc2c(c1)OCO2 (centres undefined)

>  <class>
0.0

$$$$
>  <compound>
S=C(SSC(=S)N1CCCCC1)N1CCCCC1

>  <class>
1.0

$$$$
>  <compound>
O=CC(Br)(Br)Br

>  <class>
1.0

$$$$

Inquiry: Recorded test outcome, item Clc1ccc(CO/N=C(\Cn2ccnc2)c2ccc(Cl)cc2Cl)c(Cl)c1
Reply text: 0.0

Inquiry: Recorded test outcome, item CC(C)CC(C)(c1ccc(O)cc1)c1ccc(O)cc1
Reply text: 0.0

Inquiry: Recorded test outcome, item COc1cccc(C(=O)CCN[C@@H](C)[C@H](O)c2ccccc2)c1
Reply text: 0.0

Inquiry: Recorded test outcome, item Oc1c(Cl)c(Cl)cc(Cl)c1Cl
Reply text: 0.0

Inquiry: Recorded test outcome, item CN(C)C1CSSSC1
Reply text: 0.0

----------
- protocol.summary: qHTS assay to identify small molecule agonists of H2AX - cell viability counter screen (AID 1224847); also: nearly all actives have a fitted effect of over 30% in size
- experimental.setup: CHO-K1 viability, CellTiter-Glo luminescence, 3 h; series mostly up to 154 µM
Records with an inconclusive call do not appear. The source made the active and inactive calls. The call rests on the fitted dose curve.
Returns: one label drawn from class 1 for active, class 0 for inactive

Solved entries (count: 6):
>  <compound>
CC(C)CBr

>  <class>
class 0

$$$$
>  <compound>
O=[N+]([O-])c1cc(Cl)ccc1Cl

>  <class>
class 0

$$$$
>  <compound>
Oc1ccccc1Br

>  <class>
class 0

$$$$
>  <compound>
C1CCC2CCCCC2C1 (stereo not given)

>  <class>
class 0

$$$$
>  <compound>
COc1ccc(OC)c(C=O)c1

>  <class>
class 0

$$$$
>  <compound>
CN(C)[C@@H]1C(=O)C(C(N)=O)=C(O)[C@@]2(O)C(=O)C3=C(O)c4c(O)ccc(Cl)c4[C@@](C)(O)[C@H]3C[C@@H]12

>  <class>
class 0

$$$$

Inquiry: Recorded test outcome, item CCCCCCCCCCCCCN1CC(C)OC(C)C1 (stereo not given)
Reply text: class 0

Inquiry: Recorded test outcome, item N#C/C=C/C#N
Reply text: class 0

Inquiry: Recorded test outcome, item CCCCOCN(C(=O)CCl)c1c(CC)cccc1CC
Reply text: class 1

Inquiry: Recorded test outcome, item Oc1ccc(C2(c3ccc(O)cc3)c3ccccc3-c3ccccc32)cc1
Reply text: class 1

Inquiry: Recorded test outcome, item CCCSP(=O)(OCC)SCCC
Reply text: class 0

----------
- protocol.summary: qHTS assay to identify small molecule agonists of the constitutive androstane receptor (CAR) signaling pathway - cell viability counter screen (AID 1224836); also: nearly all actives have a fitted effect of over 45% in size
- experimental.setup: HepG2-CYP2B6-hCAR viability, CellTiter-Fluor, 23 h, PK11195 added to every well; series mostly up to 92.4 µM
Records with an inconclusive call do not appear. Active and inactive are the calls of the source. Calls come from the whole dose curve; as a rule, active = well fitted cell-killing curve with a large enough effect in the repeat runs; inconclusive = weak or mixed curves, or effect the other way; inactive = flat fitted curve, though single readings scatter.
Returns: one label drawn from y = active, n = inactive

>  <compound>
COC(=O)N(C(=O)N1COC2(C(=O)OC)Cc3cc(Cl)ccc3C2=N1)c1ccc(OC(F)(F)F)cc1 (centres undefined)

>  <class>
n

$$$$
>  <compound>
O=c1oc2ccccc2c(O)c1Cc1c(O)c2ccccc2oc1=O

>  <class>
n

$$$$
>  <compound>
CC(C)CC(C)N (centres undefined)

>  <class>
n

$$$$
>  <compound>
CC(=O)/C=C/c1ccc2c(c1)OCO2

>  <class>
n

$$$$
>  <compound>
CCS(=O)(=O)c1cccnc1S(=O)(=O)NC(=O)Nc1nc(OC)cc(OC)n1

>  <class>
n

$$$$

Inquiry: Recorded test outcome, item C=CC(=O)OCC(COC(=O)C=C)(COC(=O)C=C)COC(=O)C=C
Reply text: y

Inquiry: Recorded test outcome, item COc1cccc2c1C(=O)c1c(O)c3c(c(O)c1C2=O)C[C@@](O)(C(=O)CO)CC3OC1CC(N2CCOC(OC)C2)C(O)C(C)O1 (some centres undefined)
Reply text: y

Inquiry: Recorded test outcome, item CC(=O)[O-].CC(=O)[O-].[Hg+2]
Reply text: y

Inquiry: Recorded test outcome, item CCOc1cc(C(C)(C)C)ccc1C1COC(c2c(F)cccc2F)=N1 (centres undefined)
Reply text: n

Inquiry: Recorded test outcome, item CCN(CC)C(=S)[S-].CCN(CC)C(=S)[S-].[Zn+2]
Reply text: y

Inquiry: Recorded test outcome, item CCCCCCCCCCCCCCCC[N+](C)(C)C
Reply text: y
